# MEASURED_ON: PACAP-R3 (Homo sapiens)
# Sequence (P41587 24-438): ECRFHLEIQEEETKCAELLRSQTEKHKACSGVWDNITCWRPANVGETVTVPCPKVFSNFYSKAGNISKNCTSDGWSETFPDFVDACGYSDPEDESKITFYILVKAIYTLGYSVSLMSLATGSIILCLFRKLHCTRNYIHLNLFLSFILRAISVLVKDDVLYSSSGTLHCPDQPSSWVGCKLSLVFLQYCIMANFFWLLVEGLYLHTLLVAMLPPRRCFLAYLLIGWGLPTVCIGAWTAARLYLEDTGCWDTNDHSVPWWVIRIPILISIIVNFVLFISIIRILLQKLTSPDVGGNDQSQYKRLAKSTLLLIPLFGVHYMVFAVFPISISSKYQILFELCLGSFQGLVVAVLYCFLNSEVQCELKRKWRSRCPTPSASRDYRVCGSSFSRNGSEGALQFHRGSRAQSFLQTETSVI
# ASSAY_INFO: Cyclic AMP SPA on CHO cells expressing PACAP R3
# Assay type: cell-based
# Parameters: expressed in transfected cells; host or cells: CHO cells (Geneticin selection)
# TEST_PARAMETERS: ratio of EC50 at R2 versus EC50 at R3
No end group written: not given here.
ASSAY_ENDPOINT: R3 Selectivity

Please review the entries below; each comes with its answer.
HSDAVFTDNYTRLRKQLAAKKYLNDIKKKRY [Peptide R3P36] : >200
HSDAVFTDNYTRLRKQMAKKKYLNSIRNRI [rR3P191] : >80

Record request: R3 Selectivity value, item Ac-HSDAVFTENYTKLRKQLAAKKYLNDLKKGGT-NH2 [Peptide R3P1]
>50
